- Tested on: MTG-B mouse mammary adenocarcinoma
- EXPERIMENT SUMMARY: In vivo efficacy in mice bearing MTG-B tumors
- Parameters: species or system C3H/HeJ mice
- CONDITIONS: i.p.; days from day 0; survival time of control mice generally 6 days
In plain terms, low Surviving days after treatment of MTG-B mouse mammary adenocarcinoma in C3H/Hcj mice, meaning strictly below 10 days, gives true, and everything else gives false.

{"MOLECULE": "COc1cc2c(c(OC)c1OC)-c1ccc(SC)c(=O)cc1C(NC(=O)COc1ccccc1[N+](=O)[O-])CC2 (stereo not drawn) [Compound 000830]", "CLASS LABEL": "true"}
{"MOLECULE": "COc1ccc(OCC(=O)N[C@H]2CCc3cc(OC)c(OC)c(OC)c3-c3ccc(SC)c(=O)cc32)cc1 [Compound 000825]", "CLASS LABEL": "false"}
{"MOLECULE": "COc1cc2c(c(OC)c1OC)-c1ccc(OC)c(=O)cc1C(NC(C)=O)CC2 (stereo not drawn) [Colchicine]", "CLASS LABEL": "true"}
{"MOLECULE": "COc1cc2c(c(OC)c1OC)-c1ccc(SC)c(=O)cc1C(NC(=O)COc1ccc(Br)cc1)CC2 (stereo not drawn) [Compound 000815]", "CLASS LABEL": "true"}
{"MOLECULE": "COc1cc2c(c(OC)c1OC)-c1ccc(SC)c(=O)cc1C(NC(=O)COc1ccc(C=O)cc1)CC2 (stereo not drawn) [Compound 000829]", "CLASS LABEL": "false"}
{"MOLECULE": "COc1cc2c(c(OC)c1OC)-c1ccc(SC)c(=O)cc1C(NC(=O)c1cccc(NC(=O)CCl)c1)CC2 (stereo not drawn) [Compound 000911]", "CLASS LABEL": "false"}

---

Examples of compounds with documented In Vivo Toxicity Nontoxicity Dose (ip. mg/kg) in C3H/Hej mice follow.
- Test system: C3H/HeJ mice
- EXPERIMENT SUMMARY: In vivo toxicity (MTD / nontoxicity dose), intraperitoneal injection
- CONDITIONS: highest dose causing no severe irreversible toxicity
ASSAY READOUT: In Vivo Toxicity Nontoxicity Dose (ip. mg/kg) in C3H/Hej mice

{"COMPOUND": "COc1cc2c(c(OC)c1OC)-c1ccc(SC)c(=O)cc1C(NC(=O)COc1ccc(Cl)cc1)CC2 (stereo not shown) [Compound 000814]", "ENDPOINT UNIT": "mg/kg", "READOUT NUMBER": 100}
{"COMPOUND": "COc1cc2c(c(OC)c1OC)-c1ccc(SC)c(=O)cc1C(NC(=O)c1ccc([N+](=O)[O-])o1)CC2 (stereo not shown) [Compound 000906]", "ENDPOINT UNIT": "mg/kg", "READOUT NUMBER": 50}
{"COMPOUND": "COc1cc2c(c(OC)c1OC)-c1ccc(SC)c(=O)cc1C(NC(=O)COc1ccc(I)cc1)CC2 (stereo not shown) [Compound 000816]", "ENDPOINT UNIT": "mg/kg", "READOUT NUMBER": 100}

---

Examples of molecules with documented In Vivo Toxicity Nontoxicity Dose (ip. mg/kg) in C3H/Hej mice follow.
- System: C3H/HeJ mice
- EXPERIMENT SUMMARY: In vivo toxicity (MTD / nontoxicity dose), intraperitoneal injection
- CONDITIONS: highest dose causing no severe irreversible toxicity
ASSAY READOUT: In Vivo Toxicity Nontoxicity Dose (ip. mg/kg) in C3H/Hej mice

{"MOLECULE": "COc1cc2c(c(OC)c1OC)-c1ccc(SC)c(=O)cc1C(NC(=O)c1cc(=O)c3ccccc3o1)CC2 (stereo not drawn) [Compound 000914]", "RESULT": "150 (120) mg/kg"}
{"MOLECULE": "COc1cc2c(c(OC)c1OC)-c1ccc(SC)c(=O)cc1C(NC(=O)c1cccc(NC(=O)CCl)c1)CC2 (stereo not drawn) [Compound 000911]", "RESULT": "30 (30) mg/kg"}
{"MOLECULE": "COc1cc2c(c(OC)c1OC)-c1ccc(OC)c(=O)cc1C(NC(C)=O)CC2 (stereo not drawn) [Colchicine]", "RESULT": "1.6 (0.5) mg/kg"}
